Please provide measured inhibition for the entries that follow.
# ASSAY_TEXT: viability loss in Ba/F3 EpoR-JAK2V617F cells – cell-based, luminescence, JAK2V617F inhibitor project, primary screen (AID 1446);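 note: cytokine-independent growth of Ba/F3 cells driven by EpoR plus mutant JAK2; 0% = DMSO-treated cells and 100% = JAK inhibitor I control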
# APPLIED_CONDITIONS: ATP luminescence, at 5.6 µM, stronger effect = higher value
Out of some 220,000 compounds screened, about 2,400 (1.1%) were called active. Shown is part of a subset that was picked to be rich in actives.
Return type: number; implicit unit %.

Asked: Recorded inhibition for "Cc1ccc2nc(C)c3c(c2c1)N(c1ccccc1)CC3" , please?
Given back: 19.9

Asked: Recorded inhibition for "C#CCOCCOCCOCCNc1nc(N2CCN(C(=O)[C@H](C(C)C)n3cc(CCO)nn3)CC2)nc(N2CCN(C(=O)[C@H]([C@@H](C)CC)n3cc(CCCN=C(N)N)nn3)CC2)n1" , please?
Given back: 1.82

Asked: Recorded inhibition for "Cc1ccc2sc(NNC(=O)c3ccc4c(c3)OCCO4)nc2c1C" , please?
Given back: -3.73

Asked: Recorded inhibition for "O=C(Nc1cccc([N+](=O)[O-])c1)Nc1ccc(Cl)cn1" , please?
Given back: -2.62

Asked: Recorded inhibition for "O=C1N/C(=C/c2cccn2-c2ccccc2)C(=O)N1c1cccc(Cl)c1" , please?
Given back: 51.8

Asked: Recorded inhibition for "C/C(CC(C)C)=N\Oc1nc(C)cc(C)n1" , please?
Given back: -2.21

Asked: Recorded inhibition for "COc1ccc(S(=O)(=O)NC(C)C)cc1C(=O)NC1CCCCC1" , please?
Given back: -1.5

Asked: Recorded inhibition for "CCCNc1c(N)c(=O)c1=O" , please?
Given back: 1.36

Asked: Recorded inhibition for "CCC(=O)Nc1nc2ccccc2n1Cc1ccccc1C" , please?
Given back: -0.24

Asked: Recorded inhibition for "O=C1CCCN1CCCNc1ncnc2c1[nH]c1ccccc12" , please?
Given back: -3.47

Asked: Recorded inhibition for "COc1ccc(-c2csc(Nc3ccccn3)n2)cc1" , please?
Given back: -3.7

Asked: Recorded inhibition for "COc1ccc2nc(Nc3nc(-c4ccncc4)cs3)sc2c1" , please?
Given back: 3.58

Asked: Recorded inhibition for "COCCCNC(=O)/C=C/c1ccc(OCc2c(F)cccc2Cl)cc1" , please?
Given back: -4.39

Asked: Recorded inhibition for "COc1ccc(C)cc1Nc1nc(-c2c(C)[nH]c3ccccc23)cs1" , please?
Given back: -2.69

Asked: Recorded inhibition for "COc1ccc(-c2csc(Cc3nc(O)cs3)n2)cc1" , please?
Given back: -2.27

Asked: Recorded inhibition for "Cc1nn(-c2ccccc2)c(NC(=O)c2cccs2)c(-c2ccc(Cl)cc2)c1=O" , please?
Given back: -2.34

Asked: Recorded inhibition for "CC(C)OCCCNc1ncnc2c1[nH]c1ccc(F)cc12" , please?
Given back: 64.7

Asked: Recorded inhibition for CC1CCCCN1S(=O)(=O)c1ccc(C(=O)Nc2nnc(-c3cccs3)o2)cc1 (stereo not drawn) , please?
Given back: 36.5

* * *

Please provide measured inhibition for the entries that follow.
# ASSAY_TEXT: viability loss in Ba/F3 EpoR-JAK2V617F cells – cell-based, luminescence, JAK2V617F inhibitor project, primary screen (AID 1446);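 note: cytokine-independent growth of Ba/F3 cells driven by EpoR plus mutant JAK2; 0% = DMSO-treated cells and 100% = JAK inhibitor I control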
# APPLIED_CONDITIONS: ATP luminescence, at 5.6 µM, stronger effect = higher value
In all, about 220,000 compounds went through this assay and about 2,400 (1.1%) were called active. This is one part of a sample in which actives are shown more often than they occur.

Asked: Recorded inhibition for CON(C)S(=O)(=O)c1ccc2c(c1)NC(=O)C1CCCN21 (stereo unspecified) , please?
Given back: 1.23% (inactive)

Asked: Recorded inhibition for "S=c1[nH]nc(-c2ccccc2)n1/N=C/c1c[nH]c2ccccc12" , please?
Given back: -2.71% (inactive)

Asked: Recorded inhibition for "C=CCc1cccc2cc(C(=O)Nc3ccc(NC(C)=O)cc3)c(=O)oc12" , please?
Given back: -0.67% (inactive)

Asked: Recorded inhibition for CCOc1ccc(C2c3[nH]c4ccccc4c3CCN2Cc2cccn2-c2ncccn2)cc1 (stereo unspecified) , please?
Given back: -1.83% (inactive)

Asked: Recorded inhibition for "CCc1ccc(CN(C)Cc2nc(Cc3ccccc3)no2)nc1" , please?
Given back: 1.45% (inactive)

Asked: Recorded inhibition for "C/C(=N\NC(=O)C(N)=O)c1ccc2c(c1)OCCO2" , please?
Given back: 1.44% (inactive)

Asked: Recorded inhibition for "Oc1ccc2ccccc2c1N=Nc1nccs1" , please?
Given back: 98.2% (active)

Asked: Recorded inhibition for "O=[N+]([O-])c1ccc2nc(-c3ccccn3)[nH]c2c1" , please?
Given back: 2.31% (inactive)

Asked: Recorded inhibition for "CC(C)(C)c1ccc(C(=O)NCCn2c(N)c(C#N)c3nc4ccccc4nc32)cc1" , please?
Given back: 1.57% (inactive)

Asked: Recorded inhibition for "O=C(CN1CCN(S(=O)(=O)c2ccc(Br)cc2)CC1)Nc1ccccc1C(=O)c1ccccc1" , please?
Given back: -3.02% (inactive)

Asked: Recorded inhibition for "COc1cc2c(cc1OC)C(/C=C/c1ccco1)=NCC2" , please?
Given back: 1.51% (inactive)

Asked: Recorded inhibition for "Cc1onc(-c2ccc(Cl)cc2)c1-c1ccnn1S(=O)(=O)c1ccc(Cl)cc1" , please?
Given back: -1.9% (inactive)

Asked: Recorded inhibition for "CCCC1=Nc2cc(C(=O)NCc3ccco3)ccc2Sc2ccccc21" , please?
Given back: 81.1% (active)

Asked: Recorded inhibition for "CC(C)c1nc2ccc(C(=O)O)cc2[nH]1" , please?
Given back: -2.92% (inactive)

Asked: Recorded inhibition for "CCCCCN(C(=O)NC(=O)Nc1cccc(C)c1C)S(C)(=O)=O" , please?
Given back: 1.95% (inactive)

Asked: Recorded inhibition for Cc1c(Cl)c([N+](=O)[O-])nn1CCCC(=O)NC(C)c1ccccc1 (stereo unspecified) , please?
Given back: 0.46% (inactive)

Asked: Recorded inhibition for "COC(=O)Nc1nc2ccc(Sc3ccccc3)cc2[nH]1" , please?
Given back: 83.8% (active)

Asked: Recorded inhibition for "CSc1ccc(CN2C(=O)NC3(CCCCCC3)C2=O)cc1" , please?
Given back: -4.13% (inactive)

Asked: Recorded inhibition for "CC(C)c1ccc(Nc2nnc(SCC(=O)c3nnc(-c4ccccc4)o3)s2)cc1" , please?
Given back: 0.01% (inactive)

Asked: Recorded inhibition for "N#C/C=C\Oc1ccc(Cl)cc1N" , please?
Given back: 28% (active)

Asked: Recorded inhibition for "Cc1ccc(NC(=O)CN(C)CC(=O)Nc2cccc(F)c2)cc1[N+](=O)[O-]" , please?
Given back: 32.7% (active)

* * *

# ASSAY_TEXT: viability loss in Ba/F3 EpoR-JAK2V617F cells – cell-based, luminescence, JAK2V617F inhibitor project, primary screen (AID 1446);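 note: cytokine-independent growth of Ba/F3 cells driven by EpoR plus mutant JAK2; 0% = DMSO-treated cells and 100% = JAK inhibitor I control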
# APPLIED_CONDITIONS: ATP luminescence, at 5.6 µM, stronger effect = higher value
The campaign covered roughly 220,000 compounds. About 2,400 (1.1%) were called active. The entries come from a sample that favours actives as a whole.
READOUT_TYPE: inhibition (%)
Return type: number; implicit unit %.

Asked: Recorded inhibition for "Cc1ccc(OCC(=O)N/N=C/c2ccncc2)cc1" , please?
Given back: -1.35

Asked: Recorded inhibition for "COc1ccc(NC(=S)Nc2ccccc2Cl)cn1" , please?
Given back: 4

Asked: Recorded inhibition for CCOC(=O)C1=C(N)N2C(=O)C(C)SC2=C(C(=O)OCC)C1c1cc(OC)c(OC)c(OC)c1 (stereo not given) , please?
Given back: 80.7

Asked: Recorded inhibition for "COc1ccc(C(=O)C[n+]2ccc(C)cc2)cc1" , please?
Given back: -3

Asked: Recorded inhibition for "Cc1ccc(/C=N/NC(=O)COc2ccccc2-c2ccccc2)cc1" , please?
Given back: 86.5

Asked: Recorded inhibition for CCC1CCCCN1CCCNC(=O)Cn1nc(-c2ccccc2)ccc1=O (stereo not given) , please?
Given back: -2.73

Asked: Recorded inhibition for "COc1ccc(-c2cc(C(F)(F)F)nc(S(C)(=O)=O)n2)cc1OC" , please?
Given back: 37.9

Asked: Recorded inhibition for COc1ccc(CN(C)C(C)C(=O)NC2CCCc3ccccc32)cc1 (stereo not given) , please?
Given back: 3.02

Asked: Recorded inhibition for "COc1ccc(OCCC(=O)c2ccc(OC)cc2)cc1" , please?
Given back: -0.79

Asked: Recorded inhibition for "OCCN1CCN(C(=S)c2ccc(-c3ccccc3)cc2)CC1" , please?
Given back: -5.03

Asked: Recorded inhibition for CCC1CCCCN1CCCNC(=O)C1CCC(Cn2c(=O)[nH]c3ccccc3c2=O)CC1 (stereo not given) , please?
Given back: 2.93

Asked: Recorded inhibition for "O=C(COC(=O)CNS(=O)(=O)c1ccccc1)NC12CC3CC(CC(C3)C1)C2" , please?
Given back: 2.17

Asked: Recorded inhibition for CCC1CCCCN1CCCNC(=O)c1cc2c(Cl)nc3ccccc3c2s1 (stereo not given) , please?
Given back: 58.8

Asked: Recorded inhibition for "COc1ccc(C(=O)C[n+]2ccc(N)c(C)c2C)cc1" , please?
Given back: 97.4

Asked: Recorded inhibition for "COc1ccc(NC(=S)NCCNC(C)=O)cc1" , please?
Given back: -1.93
